Test: growth suppression of yeast trafficking mutant, preliminary HTS, modulators of trafficking downstream of Golgi apparatus project, 1536-format plate, OD 615 nm (AID 637)
Conditions: yeast transport mutant growth, absorbance 615 nm, 18 h; stronger effect = higher value
Measurement type: inhibition (%)
Give bare numbers, in %.

Worked set:
| Compound | Reported value |
| --- | --- |
| CN(CC(=O)Nc1ccncc1)S(=O)(=O)c1ccccc1 | -0.63 |
| COc1ccc(Cn2nnnc2C(c2ccccn2)N2CCN(c3cc(Cl)ccc3C)CC2)cc1 (stereo unspecified) | 31.6 |
| O=C(CCc1ccc(S(=O)(=O)N2CCOCC2)cc1)NCCc1ccccn1 | -4.13 |
| CCOC(=O)CC(=O)c1cc(OC)c(OC)c(OC)c1 | -3.49 |
| O=C(NCC1CCCO1)c1cccc(N2C(=O)C3C4C=CC(C4)C3C2=O)c1 (stereo unspecified) | -9.84 |
| CC(=O)Nc1ccc(NS(=O)(=O)c2ccc(Cl)c(C(=O)O)c2)cc1 | -3.17 |
| COc1ccc2[nH]c(=O)c(CN(Cc3cccs3)Cc3nnnn3C(C)(C)C)cc2c1 | -0.95 |
| CCC(=O)N1CCc2cc(S(=O)(=O)CCC(=O)Nc3nc(C)cs3)ccc21 | -5.9 |
| O=C(O)c1ccc(S(=O)(=O)Cc2ccccc2)cc1 | 1.45 |
| Cc1[nH]c2ccccc2c1Cc1nnc(SCC(=O)NCc2ccco2)o1 | -2.17 |

Read the next record carefully.
Inquiry: // lookup inhibition for `N#Cc1c(N)oc(-c2cccs2)c1-c1cccs1`
Reply text: -3.82

----------
Assay: 384-well plate pilot, post-Golgi transport modulator project, inhibition of yeast transport mutant growth (AID 636)
Settings: absorbance 615 nm, about 18 h, stronger effect = higher value
Measurement type: inhibition (%)
Give bare numbers, in %.

Worked set:
| Compound | inhibition, % |
| --- | --- |
| CCOc1ccc(OCC)c(NC(=O)C2CCN(S(=O)(=O)c3cnc[nH]3)CC2)c1 | -2.37 |
| CCn1c2ccccc2c2cc(N)ccc21 | -5.73 |
| CC(=O)c1cccc(NC(=O)NCc2ccccn2)c1 | -4.47 |

Below is a list of compounds. For each, state its recorded inhibition.
1. CCC(=O)N1CCc2cc(Br)cc(S(=O)(=O)C3(C(=O)OC)CC3)c21
2. CCc1ccc(NS(=O)(=O)c2ccc3[nH]cc(C(=O)N4CCCCC4)c(=O)c3c2)cc1
3. C#CCN(C)Cc1ccccc1

Reply text:
1. -1.82
2. -5.66
3. 0.26

Below is a list of compounds. For each, state its recorded inhibition.
1. Cn1cccc1Cc1nnc(SCC(=O)Nc2ccccc2F)n1CCc1ccccc1
2. CN(C)c1cccc(C(=O)OCC(=O)NCc2ccco2)c1
3. CCOC(=O)c1ccc(N2C(=O)CC(Sc3nnc(C)s3)C2=O)cc1 (stereo unspecified)
4. CCCn1nnc(NCc2ccc(OCc3cccs3)c(OC)c2)n1
5. CC(=O)CCc1ccc(OCCCCn2cncn2)cc1

Reply text:
1. 1.15
2. -4.81
3. -8.4
4. -6.44
5. -4.94

----------
Assay: reversal of MRP1-mediated doxorubicin resistance, pilot screen, H69AR cells, doxorubicin co-treatment (AID 601)
Settings: H69AR cells + 2 uM doxorubicin, CellTiter-Glo, 72 h; measured here: viability with 2 uM doxorubicin; at 10 µM; stronger effect = lower value
Measurement type: viability (%)
Answers are plain numbers, in %.

Worked set:
| Compound | viability (%) |
| --- | --- |
| COc1ccc(CC(=O)Nc2cc(Cl)ccc2O)cc1 | 80.4 |
| O=C1c2ccccc2-c2nc3ncnn3c(-c3ccccc3)c21 | 93.2 |

Below is a list of compounds. For each, state its recorded viability.
1. Cc1cc(C)n(S(=O)(=O)c2cc(C(=O)O)c(Cl)cc2Cl)n1
2. Cc1ccc(S(=O)(=O)NCC(c2cccnc2)N(C)C)cc1 (stereo unspecified)
3. CC(C)NC(=O)Nc1cccs1
4. O=C1c2ccccc2C(Nc2ccc3nc(-c4cccnc4)[nH]c3c2)N1Cc1ccco1 (stereo unspecified)

Reply text:
92.8
103
95.6
81.1
